Test: Solubility of compound in water at pH 7
Format: physicochemical
attribute.measured: solubility (µg/mL)
Answers are plain numbers, in µg/mL.

solubility in this record for `CCN1CCN(CCC(=O)Nc2ccc(S(=O)(=O)N(CC(N)=O)c3ccc(N(CC(N)=O)S(=O)(=O)c4ccccc4)c4ccccc34)cc2)CC1` : 902
